Assay type: in vivo, human
measurement conditions: human, plasma, oral, 50 mg, Mean t½ (SD), fasted state, single 50 mg ECT, n = 11
assay readout: half-life (h)
The response must be a number in h with no trailing unit.

Ask: Annotate the compound COc1cc(Nc2ncc3c(n2)-c2ccc(Cl)cc2C(c2c(F)cccc2OC)=NC3)ccc1C(=O)O [Alisertib] with its measured half-life.
Result: 16.7

---

Assay type: in vivo, human
measurement conditions: human, plasma, oral, 50 mg, Mean t½ (SD), fed state, single 50 mg ECT, n = 14
assay readout: half-life
Answers without a unit are incomplete; give the number and then its unit.

Ask: Annotate the molecule COc1cc(Nc2ncc3c(n2)-c2ccc(Cl)cc2C(c2c(F)cccc2OC)=NC3)ccc1C(=O)O [Alisertib] with its measured half-life.
Result: 14.9 h

# credit: paper PMC4767718
